# target or system: BMPR2 GBD-Fc (WT) (human) (UniProt Q13873)
# Sequence (Q13873 whole entry): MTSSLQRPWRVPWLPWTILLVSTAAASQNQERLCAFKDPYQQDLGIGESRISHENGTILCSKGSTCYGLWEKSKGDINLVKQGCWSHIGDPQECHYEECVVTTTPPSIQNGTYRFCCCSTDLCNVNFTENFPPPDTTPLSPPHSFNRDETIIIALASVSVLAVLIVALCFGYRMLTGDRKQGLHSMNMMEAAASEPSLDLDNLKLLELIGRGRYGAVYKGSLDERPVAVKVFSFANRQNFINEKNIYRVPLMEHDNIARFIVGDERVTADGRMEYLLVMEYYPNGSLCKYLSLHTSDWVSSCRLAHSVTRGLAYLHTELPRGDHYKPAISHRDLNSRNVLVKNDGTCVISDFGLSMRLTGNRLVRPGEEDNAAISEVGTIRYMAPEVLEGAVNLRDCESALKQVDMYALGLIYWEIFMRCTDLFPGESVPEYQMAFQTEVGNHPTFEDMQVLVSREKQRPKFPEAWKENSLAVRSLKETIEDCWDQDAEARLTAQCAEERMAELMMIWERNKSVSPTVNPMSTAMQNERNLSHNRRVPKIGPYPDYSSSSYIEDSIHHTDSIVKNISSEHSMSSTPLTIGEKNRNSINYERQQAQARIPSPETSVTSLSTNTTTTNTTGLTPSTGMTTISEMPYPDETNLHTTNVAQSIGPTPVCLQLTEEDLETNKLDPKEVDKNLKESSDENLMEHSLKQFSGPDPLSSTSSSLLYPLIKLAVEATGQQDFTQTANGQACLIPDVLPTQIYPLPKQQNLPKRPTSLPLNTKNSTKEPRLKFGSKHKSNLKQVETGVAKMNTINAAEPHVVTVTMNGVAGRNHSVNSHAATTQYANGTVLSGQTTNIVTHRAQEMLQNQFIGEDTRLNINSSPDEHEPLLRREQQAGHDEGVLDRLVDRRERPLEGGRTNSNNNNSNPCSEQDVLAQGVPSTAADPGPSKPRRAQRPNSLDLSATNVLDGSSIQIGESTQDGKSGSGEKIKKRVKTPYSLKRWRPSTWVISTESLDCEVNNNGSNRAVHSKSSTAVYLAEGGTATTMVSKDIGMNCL
# measurement description: SPR; BIAcore 3000; receptor-Fc (about 500 RU BMPR2-Fc WT or variants, 150 RU ACVR2A-Fc) captured on immobilised anti-human IgG (Fc), CM5 chip; single injections of 80 nM GF, single curve fits, averages of two independent injections; 25 °C; HBS/EPS (0.01 M Hepes, 0.5 M NaCl, 3 mM EDTA, 0.005% Tween 20, pH 7.4) with 0.1% bovine serum albumin; 50 μl/min; 1:1 binding model, KD = kd/ka
Parameter: pKd. Scope: all listed entries.
pKd here: minus log base 10 of the concentration, concentration in moles per litre.

Study these solved cases before continuing.
{"binder": "BMP15 (ligand) QADGISAEVTASSSKHSGPENNQCSLHPFQISFRQLGWDHWIIAPPFYTPNYCKGTCLRVLRDGLNSPNHAIIQNLINQLVDQSVPRPSCVPYKYVPISVLMIEANGSILYKEYEGMIAESCTCR", "pKd": 8.20}
{"binder": "BMP10 (ligand) NAKGNYCKRTPLYIDFKEIGWDSWIIAPPGYEAYECRGVCNYPLAEHLTPTKHAIIQALVHLKNSQKASKACCVPTKLEPISILYLDKGVVTYKFKYEGMAVSECGCR", "pKd": 8.68}
{"binder": "Nodal (ligand) HHLPDRSQLCRKVKFQVDFNLIGWGSWIIYPKQYNAYRCEGECPNPVGEEFHPTNHAYIQSLLKRYQPHRVPSTCCAPVKTKPLSMLYVDNGRVLLDHHKDMIVEECGCL", "pKd": 8.49}

Would you kindly look at the next entry?
Q: So what does the record say about pKd for activin B (ligand) GLECDGRTNLCCRQQFFIDFRLIGWNDWIIAPTGYYGNYCEGSCPAYLAGVPGSASSFHTAVVNQYRMRGLNPGTVNSCCIPTKLSTMSMLYFDDEYNIVKRDVPNMIVEECGCA ?
Result: 8.64
